Reference source: ChEMBL document CHEMBL2203033

- System Under Test: Aurora kinase B (Homo sapiens, UniProt Q96GD4)
- Sequence (Q96GD4 whole entry): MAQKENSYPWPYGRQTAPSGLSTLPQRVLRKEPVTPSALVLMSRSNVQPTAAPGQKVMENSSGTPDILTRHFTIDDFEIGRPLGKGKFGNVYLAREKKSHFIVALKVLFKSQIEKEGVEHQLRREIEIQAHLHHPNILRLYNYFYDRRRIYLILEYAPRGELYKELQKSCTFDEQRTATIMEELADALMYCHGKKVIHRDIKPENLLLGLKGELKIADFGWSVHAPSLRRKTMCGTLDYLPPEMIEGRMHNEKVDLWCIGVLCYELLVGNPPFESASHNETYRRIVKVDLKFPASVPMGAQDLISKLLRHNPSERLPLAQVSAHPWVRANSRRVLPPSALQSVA

# Record Smiles, Readout Unit, IC50
records = [
    ("CN(c1ccc(F)c(NC(=O)c2cccc(OC(C)(C)C#N)c2Cl)c1)c1ccc2nc(NC(=O)C3CC3)sc2n1", "µM", 4),
]

---

List of microsomal CLint at 1 µM values.
- Assay Info: Intrinsic clearance in human liver microsomes at 1 umol/L after 20 mins in presence of NADPH
- Type: ADME, Microsome
- Assay Conditions: read-out: CLH

# Record Smiles, Readout Unit, microsomal CLint at 1 µM
rows = [
    ("CC(=O)Nc1nc2ccc(N(C)c3ccc(F)c(NC(=O)c4cccc(OC(C)(C)C#N)c4)c3)nc2s1", "µL/min/mg", 22),
    ("CC(=O)Nc1nc2cnc(Nc3cc(NC(=O)c4cccc(CC(C)(C)C#N)c4)ccc3C)nc2s1", "µL/min/mg", 56),
    ("CC(=O)Nc1nc2cnc(Nc3cc(NC(=O)c4cccc(CCC#N)c4)ccc3C)nc2s1", "µL/min/mg", 35),
    ("CN(c1ccc(F)c(NC(=O)c2cccc(OC(C)(C)C#N)c2Cl)c1)c1ccc2nc(NC(=O)C3CC3)sc2n1", "µL/min/mg", 25),
    ("CC(=O)Nc1nc2ccc(N(C)c3ccc(F)c(NC(=O)c4cccc(OC(C)(C)C#N)c4Cl)c3)nc2s1", "µL/min/mg", 45),
    ("CC(=O)Nc1nc2cnc(Nc3cc(NC(=O)c4cccc(C5(C#N)CC5)c4Cl)ccc3C)nc2s1", "µL/min/mg", 73),
]

---

- System Under Test: Cyclin-dependent kinase 2 (Homo sapiens)

# Record Smiles, System Under Test, IC50
data = [
    ("CN(c1ccc(F)c(NC(=O)c2cccc(OC(C)(C)C#N)c2Cl)c1)c1ccc2nc(NC(=O)C3CC3)sc2n1", "Cyclin-dependent kinase 2 (Homo sapiens)", "> 10 µM"),
]

---

- Assay Info: Thermodynamic solubility of the compound in Japanese pharmacopoeia 2nd fluid at pH 6.8 presence of 20 mmol/L of bile acid
- Format: physicochemical
- Assay Conditions: read-out: Therm_solubility
List of solubility thermodynamic values.

# Record Smiles, solubility thermodynamic (µg/mL)
data = [
    ("CC(C)(C#N)Oc1cccc(C(=O)Nc2cc(Nc3ccc4nc(NC(=O)C5CC5)sc4n3)ccc2F)c1Cl", 0.91),
    ("CN(c1ccc(F)c(NC(=O)c2cccc(OC(C)(C)C#N)c2Cl)c1)c1ccc2nc(NC(=O)C3CC3)sc2n1.Cl", 31),
    ("CN(c1ccc(F)c(NC(=O)c2cccc(OC(C)(C)C#N)c2Cl)c1)c1ccc2nc(NC(=O)C3CC3)sc2n1.O=S(=O)(O)O", 35),
    ("CN(c1ccc(F)c(NC(=O)c2cccc(OC(C)(C)C#N)c2Cl)c1)c1ccc2nc(NC(=O)C3CC3)sc2n1", 18),
    ("CN(c1ccc(F)c(NC(=O)c2cccc(OC(C)(C)C#N)c2Cl)c1)c1ccc2nc(NC(=O)C3CC3)sc2n1.O.O=S(=O)(O)c1ccccc1", 37),
]

---

- System Under Test: UniProt Q04759
- Sequence (Q04759 whole entry): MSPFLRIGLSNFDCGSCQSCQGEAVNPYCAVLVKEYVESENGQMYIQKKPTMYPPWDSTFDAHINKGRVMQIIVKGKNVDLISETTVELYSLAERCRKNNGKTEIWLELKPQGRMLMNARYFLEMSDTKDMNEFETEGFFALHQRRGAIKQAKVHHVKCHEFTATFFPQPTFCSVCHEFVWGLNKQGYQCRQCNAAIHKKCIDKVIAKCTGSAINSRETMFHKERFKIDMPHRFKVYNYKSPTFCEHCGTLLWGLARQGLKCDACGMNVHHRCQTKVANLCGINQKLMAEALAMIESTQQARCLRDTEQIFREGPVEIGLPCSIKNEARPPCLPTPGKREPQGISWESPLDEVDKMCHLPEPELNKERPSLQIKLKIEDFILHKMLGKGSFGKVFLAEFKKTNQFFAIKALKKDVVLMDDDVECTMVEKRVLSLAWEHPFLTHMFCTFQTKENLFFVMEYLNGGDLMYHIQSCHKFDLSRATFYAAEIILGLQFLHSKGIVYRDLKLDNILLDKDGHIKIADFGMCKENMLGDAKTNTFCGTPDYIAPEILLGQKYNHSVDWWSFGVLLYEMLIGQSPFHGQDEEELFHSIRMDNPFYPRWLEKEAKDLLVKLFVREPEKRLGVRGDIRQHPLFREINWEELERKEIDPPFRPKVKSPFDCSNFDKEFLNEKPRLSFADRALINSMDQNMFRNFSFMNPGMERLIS
pIC50: −log10 of the molar value.
Parameter Measured: pIC50

# Record Smiles, Parameter Measured, Meas Value
records = [
    ("CN(c1ccc(F)c(NC(=O)c2cccc(OC(C)(C)C#N)c2Cl)c1)c1ccc2nc(NC(=O)C3CC3)sc2n1", "pIC50", "< 5.00"),
]

---

- Assay Info: Total clearance in rat at 1 mg/kg, iv
- Format: ADME, organism-based
- Design: dose 1 mg/kg, route intravenous
- Assay Conditions: in vivo
Parameter Measured: clearance (mL/min/kg)

# Record Smiles, Parameter Measured, Readout Unit, Meas Value
data = [
    ("CN(c1ccc(F)c(NC(=O)c2cccc(OC(C)(C)C#N)c2Cl)c1)c1ccc2nc(NC(=O)C3CC3)sc2n1.O.O=S(=O)(O)c1ccccc1", "clearance", "mL/min/kg", 29.2),
]

---

- System Under Test: Serine/threonine-protein kinase B-raf (Homo sapiens, UniProt P15056, V600E)
- Sequence (P15056 2-766 V600E limits assumed): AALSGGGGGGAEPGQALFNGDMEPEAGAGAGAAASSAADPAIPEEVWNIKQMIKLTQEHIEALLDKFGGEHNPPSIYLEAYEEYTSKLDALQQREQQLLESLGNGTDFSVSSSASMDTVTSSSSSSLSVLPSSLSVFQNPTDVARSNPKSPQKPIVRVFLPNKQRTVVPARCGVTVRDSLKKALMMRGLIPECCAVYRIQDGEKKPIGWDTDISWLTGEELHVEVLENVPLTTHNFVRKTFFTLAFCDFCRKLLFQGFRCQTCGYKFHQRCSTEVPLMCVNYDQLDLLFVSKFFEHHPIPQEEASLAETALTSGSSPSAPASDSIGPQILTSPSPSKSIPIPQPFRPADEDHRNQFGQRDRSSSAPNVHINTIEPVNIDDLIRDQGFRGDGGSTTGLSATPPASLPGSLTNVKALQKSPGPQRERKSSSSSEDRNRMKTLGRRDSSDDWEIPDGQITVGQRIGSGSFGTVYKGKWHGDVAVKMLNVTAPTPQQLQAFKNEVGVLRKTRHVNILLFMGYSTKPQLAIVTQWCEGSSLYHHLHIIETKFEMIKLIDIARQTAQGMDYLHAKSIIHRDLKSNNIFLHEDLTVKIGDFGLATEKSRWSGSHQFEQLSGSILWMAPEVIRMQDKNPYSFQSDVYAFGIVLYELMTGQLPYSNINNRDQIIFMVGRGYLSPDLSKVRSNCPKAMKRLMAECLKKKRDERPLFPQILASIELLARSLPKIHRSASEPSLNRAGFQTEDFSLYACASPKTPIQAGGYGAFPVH
- Assay Info: Inhibition of BRAF V600E mutant in human HT-29 cells assessed as reduction of […] phosphorylation
- Type: cell-based

# Record Smiles, IC50, µM
records = [
    ("CC(=O)Nc1nc2cnc(Nc3cc(NC(=O)c4cccc(OC(C)(C)C#N)c4)ccc3C)nc2s1", 0.088),
    ("CC(=O)Nc1nc2ccc(N(C)c3ccc(F)c(NC(=O)c4cccc(OC(C)(C)C#N)c4)c3)nc2s1", 0.03),
    ("CC(C)(C#N)Oc1cccc(C(=O)Nc2cc(Nc3ccc4nc(NC(=O)C5CC5)sc4n3)ccc2F)c1Cl", 0.087),
    ("CC(=O)Nc1nc2cnc(Nc3cc(NC(=O)c4cccc(C5(C#N)CC5)c4Cl)ccc3C)nc2s1", 0.12),
]

---

- System Under Test: Mitogen-activated protein kinase 3 (Homo sapiens)
- Sequence (P27361 whole entry): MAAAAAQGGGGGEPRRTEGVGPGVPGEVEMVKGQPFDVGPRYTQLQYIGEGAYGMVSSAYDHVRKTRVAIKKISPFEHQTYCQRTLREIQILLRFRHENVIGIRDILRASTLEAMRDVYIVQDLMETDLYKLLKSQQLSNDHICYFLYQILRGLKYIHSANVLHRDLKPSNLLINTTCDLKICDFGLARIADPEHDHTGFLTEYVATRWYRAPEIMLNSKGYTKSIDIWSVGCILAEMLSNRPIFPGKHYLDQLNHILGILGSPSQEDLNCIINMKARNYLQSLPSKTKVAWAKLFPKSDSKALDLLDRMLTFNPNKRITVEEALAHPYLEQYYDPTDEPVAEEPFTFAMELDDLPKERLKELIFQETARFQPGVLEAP
- Assay Info: Inhibition of ERK1
pIC50: −log10 of the molar value.

# Record Smiles, pIC50
data = [
    ("CN(c1ccc(F)c(NC(=O)c2cccc(OC(C)(C)C#N)c2Cl)c1)c1ccc2nc(NC(=O)C3CC3)sc2n1", "< 5.00"),
]

---

- Assay Info: AUC (0 to 24 hrs) in rat at 1 mg/kg, iv
- Assay type: ADME, organism-based
- Set-up: time < 24 hr, dose 1 mg/kg, route intravenous
- Assay Conditions: plasma
Parameter Measured: AUC(0-t) at 24 h (ng·h/mL)

# Record Smiles, Meas Value
rows = [
    ("CN(c1ccc(F)c(NC(=O)c2cccc(OC(C)(C)C#N)c2Cl)c1)c1ccc2nc(NC(=O)C3CC3)sc2n1.O.O=S(=O)(O)c1ccccc1", 600),
]

---

- System Under Test: Serine/threonine-protein kinase B-raf (Homo sapiens, UniProt P15056, V600E)
- Assay Info: Inhibition of BRAF V600E mutant in human HT-29 cells assessed as reduction of […] phosphorylation
- Assay type: cell-based

# Record Smiles, System Under Test, Readout Unit, Qualifier Sign, IC50
rows = [
    ("CC(=O)Nc1nc2cnc(Nc3cc(NC(=O)c4cccc(CC(C)(C)C#N)c4)ccc3C)nc2s1", "Serine/threonine-protein kinase B-raf (Homo sapiens, UniProt P15056, V600E)", "nM", "=", 150),
    ("CC(=O)Nc1nc2ccc(N(C)c3ccc(F)c(NC(=O)c4cccc(OC(C)(C)C#N)c4Cl)c3)nc2s1", "Serine/threonine-protein kinase B-raf (Homo sapiens, UniProt P15056, V600E)", "nM", "=", 22),
    ("CC(=O)Nc1nc2cnc(Nc3cc(NC(=O)c4cccc(CCC#N)c4)ccc3C)nc2s1", "Serine/threonine-protein kinase B-raf (Homo sapiens, UniProt P15056, V600E)", "nM", ">", 500),
]

---

- System Under Test: Serine/threonine-protein kinase B-raf (Homo sapiens, UniProt P15056, V600E)
- Assay Info: Inhibition of recombinant BRAF V600E mutant using […] and [gamma-32P]ATP as substrate after 30 mins by scintillation counting
List of IC50 values.

# Record Smiles, Readout Unit, IC50
records = [
    ("CC(=O)Nc1nc2cnc(Nc3cc(NC(=O)c4cccc(CCC#N)c4)ccc3C)nc2s1", "nM", 51),
    ("CC(C)(C#N)Oc1cccc(C(=O)Nc2cc(Nc3ccc4nc(NC(=O)C5CC5)sc4n3)ccc2F)c1Cl", "nM", 15),
    ("CC(=O)Nc1nc2cnc(Nc3cc(NC(=O)c4cccc(CC(C)(C)C#N)c4)ccc3C)nc2s1", "nM", 100),
    ("CC(=O)Nc1nc2cnc(Nc3cc(NC(=O)c4cccc(C5(C#N)CC5)c4Cl)ccc3C)nc2s1", "nM", 91),
    ("CC(=O)Nc1nc2cnc(Nc3cc(NC(=O)c4cccc(OC(C)(C)C#N)c4)ccc3C)nc2s1", "nM", 73),
]

---

- Assay Info: Volume of distribution at steady state in rat at 1 mg/kg, iv
- Type: ADME, organism-based
- Design: dose 1 mg/kg, route intravenous
- Assay Conditions: in vivo, read-out: Vdss

# Record Smiles, Vd (L/kg)
measured = [
    ("CN(c1ccc(F)c(NC(=O)c2cccc(OC(C)(C)C#N)c2Cl)c1)c1ccc2nc(NC(=O)C3CC3)sc2n1.O.O=S(=O)(O)c1ccccc1", 5.52),
]

---

- Assay Info: AUC (0 to 24 hrs) in rat at 25 mg/kg, po
- Format: ADME, organism-based
- Set-up: time < 24 hr, dose 25 mg/kg, route oral
- Assay Conditions: plasma
Parameter Measured: AUC(0-t) at 24 h (ng·h/mL)

# Record Smiles, Meas Value
measured = [
    ("CN(c1ccc(F)c(NC(=O)c2cccc(OC(C)(C)C#N)c2Cl)c1)c1ccc2nc(NC(=O)C3CC3)sc2n1.O.O=S(=O)(O)c1ccccc1", 5770),
]
